biological target: human Arginine Vasopressin Receptor 1a (AVPR1a) (Homo sapiens, UniProt P37288); assay: cell-based; details: read-out: V1a-R IC50
Sequence (P37288 whole entry): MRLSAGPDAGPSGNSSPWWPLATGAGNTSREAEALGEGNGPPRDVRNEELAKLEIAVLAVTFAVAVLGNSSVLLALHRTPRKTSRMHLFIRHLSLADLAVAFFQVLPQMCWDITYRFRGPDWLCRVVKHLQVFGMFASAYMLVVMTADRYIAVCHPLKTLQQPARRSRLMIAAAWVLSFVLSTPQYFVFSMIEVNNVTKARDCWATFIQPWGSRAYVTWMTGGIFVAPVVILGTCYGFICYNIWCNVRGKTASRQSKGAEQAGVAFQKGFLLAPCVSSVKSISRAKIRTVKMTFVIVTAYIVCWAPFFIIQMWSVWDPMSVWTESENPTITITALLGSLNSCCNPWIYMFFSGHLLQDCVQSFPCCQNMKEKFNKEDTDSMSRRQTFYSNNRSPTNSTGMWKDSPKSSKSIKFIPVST
quantity.kind: IC50 (nM)
All answers are understood in nM, so give the number only.

Some compounds with known IC50 results, for comparison:
N#Cc1ccnc(N2CCC(C(=O)N(CC3CC3)c3ccc(Cl)cc3)CC2)n1	96
O=C(c1ccccc1)N1CCC(C(=O)N2CCCCc3cc(Cl)ccc32)CC1	1820
O=C(C1CCN(C(=O)C23CC4CC(CC(C4)C2)C3)CC1)N1CCCCc2cc(Cl)ccc21	8080

API: the following record is the query input.
What value of measured IC50 is listed for "O=C(N1CCN(c2ncc(F)cn2)CC1)N(CC1CC1)c1ccc(Cl)cc1" ? 106
